Hello, the source for this data is patent US12116422B2, in case you need it.

- System: ANK domain of N1ICD (Homo sapiens)
- Experimental protocol: KD (M)
Where no end group is shown, it is not given here.
Quantity measured: pKd
Give bare numbers, as −log10 of the molar value.

QUERY: # return recorded pKd for input YAKRIFYQLLSKQL [mAH2, YAKRIFYQLLSKQL]
RESULT: 7.22

----------
- System: ANK domain of N1ICD (Homo sapiens, UniProt P46531)
- Sequence (P46531 19-2555 limits assumed): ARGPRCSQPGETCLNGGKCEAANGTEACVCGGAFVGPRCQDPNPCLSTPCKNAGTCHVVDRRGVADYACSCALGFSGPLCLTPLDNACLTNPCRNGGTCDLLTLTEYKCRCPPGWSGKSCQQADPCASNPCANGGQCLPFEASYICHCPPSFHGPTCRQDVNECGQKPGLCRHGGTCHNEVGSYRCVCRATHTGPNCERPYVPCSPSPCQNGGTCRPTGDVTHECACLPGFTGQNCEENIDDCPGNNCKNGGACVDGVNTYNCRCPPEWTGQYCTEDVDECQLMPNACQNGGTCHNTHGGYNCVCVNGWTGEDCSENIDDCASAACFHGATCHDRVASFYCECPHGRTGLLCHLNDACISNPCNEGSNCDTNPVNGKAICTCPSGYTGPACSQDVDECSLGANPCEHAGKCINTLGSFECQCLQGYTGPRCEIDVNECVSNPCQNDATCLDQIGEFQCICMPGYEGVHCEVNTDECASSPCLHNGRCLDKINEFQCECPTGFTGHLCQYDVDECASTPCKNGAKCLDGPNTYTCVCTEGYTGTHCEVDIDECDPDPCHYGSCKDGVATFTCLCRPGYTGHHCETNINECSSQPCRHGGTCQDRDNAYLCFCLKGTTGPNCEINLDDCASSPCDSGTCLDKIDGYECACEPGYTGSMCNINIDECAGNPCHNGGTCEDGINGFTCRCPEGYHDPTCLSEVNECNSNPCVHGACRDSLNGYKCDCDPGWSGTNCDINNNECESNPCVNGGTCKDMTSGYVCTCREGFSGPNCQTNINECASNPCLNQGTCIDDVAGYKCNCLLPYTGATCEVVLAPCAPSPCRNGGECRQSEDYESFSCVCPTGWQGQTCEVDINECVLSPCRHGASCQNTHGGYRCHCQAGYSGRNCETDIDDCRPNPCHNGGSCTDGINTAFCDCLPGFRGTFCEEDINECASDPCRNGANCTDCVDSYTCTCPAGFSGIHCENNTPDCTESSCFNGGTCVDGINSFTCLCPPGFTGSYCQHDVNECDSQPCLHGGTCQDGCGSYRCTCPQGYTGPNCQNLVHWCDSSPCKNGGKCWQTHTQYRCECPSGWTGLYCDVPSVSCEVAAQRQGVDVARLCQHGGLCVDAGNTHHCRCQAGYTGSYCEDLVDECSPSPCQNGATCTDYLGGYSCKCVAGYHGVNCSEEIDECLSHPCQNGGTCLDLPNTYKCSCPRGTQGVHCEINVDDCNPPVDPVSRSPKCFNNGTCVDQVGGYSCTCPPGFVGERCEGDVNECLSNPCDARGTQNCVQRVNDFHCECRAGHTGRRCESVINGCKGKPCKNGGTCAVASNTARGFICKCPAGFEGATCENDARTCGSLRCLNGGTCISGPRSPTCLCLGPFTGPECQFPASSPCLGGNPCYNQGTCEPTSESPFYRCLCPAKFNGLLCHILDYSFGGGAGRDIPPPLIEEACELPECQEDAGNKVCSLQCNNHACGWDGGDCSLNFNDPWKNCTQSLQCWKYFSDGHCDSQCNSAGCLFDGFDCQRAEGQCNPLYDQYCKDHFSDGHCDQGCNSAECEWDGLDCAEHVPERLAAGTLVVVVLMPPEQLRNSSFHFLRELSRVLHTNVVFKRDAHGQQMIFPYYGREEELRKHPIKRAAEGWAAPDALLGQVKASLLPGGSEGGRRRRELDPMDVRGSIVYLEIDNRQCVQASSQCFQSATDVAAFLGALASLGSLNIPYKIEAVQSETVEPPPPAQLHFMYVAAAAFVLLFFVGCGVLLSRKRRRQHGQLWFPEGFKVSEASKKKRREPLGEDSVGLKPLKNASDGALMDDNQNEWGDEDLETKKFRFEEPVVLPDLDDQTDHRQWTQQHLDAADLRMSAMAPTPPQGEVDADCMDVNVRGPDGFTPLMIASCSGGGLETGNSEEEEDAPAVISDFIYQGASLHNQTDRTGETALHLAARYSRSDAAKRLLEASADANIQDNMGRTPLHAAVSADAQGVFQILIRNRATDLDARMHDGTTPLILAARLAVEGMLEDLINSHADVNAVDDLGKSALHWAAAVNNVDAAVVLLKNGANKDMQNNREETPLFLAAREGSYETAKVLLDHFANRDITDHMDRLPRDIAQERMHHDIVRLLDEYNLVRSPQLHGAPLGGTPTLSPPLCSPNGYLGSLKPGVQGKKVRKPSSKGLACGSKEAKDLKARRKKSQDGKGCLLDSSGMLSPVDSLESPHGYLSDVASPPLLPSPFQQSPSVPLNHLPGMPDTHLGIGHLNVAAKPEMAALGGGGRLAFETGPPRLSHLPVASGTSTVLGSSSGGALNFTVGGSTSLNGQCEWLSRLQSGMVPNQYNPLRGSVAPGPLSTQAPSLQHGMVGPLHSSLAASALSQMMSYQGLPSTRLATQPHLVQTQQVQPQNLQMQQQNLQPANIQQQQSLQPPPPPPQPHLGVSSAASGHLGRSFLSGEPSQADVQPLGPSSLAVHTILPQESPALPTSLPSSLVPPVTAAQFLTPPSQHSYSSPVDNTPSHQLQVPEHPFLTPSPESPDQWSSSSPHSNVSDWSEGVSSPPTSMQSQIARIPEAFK
- Experimental protocol: KD (M)
Where no end group is shown, it is not given here.
Quantity measured: pKd
Numbers only, as −log10 of the molar value.

QUERY: # return recorded pKd for input YAKRIFYQLLSKEL [AH2]
RESULT: 7.22
